- Tested on: MOLT-4 leukemia
- run_description: NCI-60 one-dose screen, 48 h
- test_context: 10 µM unless noted
This is part of a sample that, as a whole, favours compounds with a hit. Of some 83,000 tested, about 20% had one in any assay. Activity calls are given as the source filed them. How the source made its calls: active means growth percent below 10; inactive means the rest.
Possible outcomes: active, inactive

structure_smiles_string	assigned_category
OCCOCCN(Cc1ccccn1)Cc1cc(I)cc(I)c1O	inactive
CN([O-])c1nc(N(C)[O-])nc(N2CCOCC2)n1.CN([O-])c1nc(N(C)[OH2+])nc(N2CCOCC2)n1.[Fe+3]	inactive
O=C1Nc2ccccc2[C@]12CC(c1ccccc1)=NN2	inactive
COC(=O)c1c2c(c[n+]([O-])c1C)C(=O)C(NCc1ccccc1)=CC2=O	active
